- Assay text: Solid state bulk stability stress test (HPLC degradation products, color, XRPD)
- Type: physicochemical
- Test settings: Compound B forms, 2 weeks 80° C./11% RH
Structures can show the parent of a compound that is named as a salt.
Property: DP[%] degradation products, Bulk (HPLC); scope: individual compounds
Assay readout: DP[%] degradation products, Bulk (HPLC) (%)

>>> print(df.to_string())
                                   compound  unit_text  readout_number
0  CNC[C@]1(c2ccccc2)Oc2cc(F)c(Cl)c(-c3c(C(N)=O)ccc(OC)c3F)c2[C@@H]1C [Compound B L-lactate salt]          %            0.31
1  CNC[C@]1(c2ccccc2)Oc2cc(F)c(Cl)c(-c3c(C(N)=O)ccc(OC)c3F)c2[C@@H]1C [Compound B L-malate salt]          %            0.46
2  CNC[C@]1(c2ccccc2)Oc2cc(F)c(Cl)c(-c3c(C(N)=O)ccc(OC)c3F)c2[C@@H]1C [Compound B Free form, amorphous]          %           13.00
3  CNC[C@]1(c2ccccc2)Oc2cc(F)c(Cl)c(-c3c(C(N)=O)ccc(OC)c3F)c2[C@@H]1C [Compound B Succinate salt]          %            0.08

====

- Assay text: Excipient compatibility stress test (HPLC degradation products, color)
- Format: physicochemical
- Test settings: Compound B forms, 2 weeks 50° C./75% RH, 1% in HGC powder
Counter-ions that a name gives are not always drawn.
Property: DP[%] degradation products; scope: individual compounds
Assay readout: DP[%] degradation products (%)

In [3]: df
Out[3]:
                                   compound               assay_readout  readout_number
0  CNC[C@]1(c2ccccc2)Oc2cc(F)c(Cl)c(-c3c(C(N)=O)ccc(OC)c3F)c2[C@@H]1C [Compound B Free form, amorphous]  DP[%] degradation products            2.50
1  CNC[C@]1(c2ccccc2)Oc2cc(F)c(Cl)c(-c3c(C(N)=O)ccc(OC)c3F)c2[C@@H]1C [Compound B Succinate salt]  DP[%] degradation products            0.25
2  CNC[C@]1(c2ccccc2)Oc2cc(F)c(Cl)c(-c3c(C(N)=O)ccc(OC)c3F)c2[C@@H]1C [Compound B L-lactate salt]  DP[%] degradation products            0.44
3  CNC[C@]1(c2ccccc2)Oc2cc(F)c(Cl)c(-c3c(C(N)=O)ccc(OC)c3F)c2[C@@H]1C [Compound B L-malate salt]  DP[%] degradation products            1.32

====

- Assay text: Hygroscopicity (loss on drying by TGA and XRPD, as is and after storage at 92% / 80% RH)
- Assay type: physicochemical
- Test settings: Compound B forms; Hygroscopicity, As is; TGA temperature per cell: free form @233° C., succinate @205° C., L-malate @200° C., L-lactate @200° C.
Structures can show the parent of a compound that is named as a salt.
Assay readout: Loss on drying by TGA (%@200 °C)

                                   molecule  readout_number
0  CNC[C@]1(c2ccccc2)Oc2cc(F)c(Cl)c(-c3c(C(N)=O)ccc(OC)c3F)c2[C@@H]1C [Compound B L-malate salt]            0.81
1  CNC[C@]1(c2ccccc2)Oc2cc(F)c(Cl)c(-c3c(C(N)=O)ccc(OC)c3F)c2[C@@H]1C [Compound B L-lactate salt]            0.92

====

- Assay text: Hygroscopicity (loss on drying by TGA and XRPD, as is and after storage at 92% / 80% RH)
- Format: physicochemical
- Test settings: Compound B forms; After 1 day at 92% RH; TGA temperature per cell: free form @233° C., succinate @205° C., L-malate @200° C., L-lactate @200° C.
Where a name gives a salt, the structure may show the parent alone.
Property: Loss on drying by TGA; scope: individual compounds
Assay readout: Loss on drying by TGA (%@200 °C)

In [3]: df
Out[3]:
                                   compound          assay_readout  readout_number
0  CNC[C@]1(c2ccccc2)Oc2cc(F)c(Cl)c(-c3c(C(N)=O)ccc(OC)c3F)c2[C@@H]1C [Compound B L-malate salt]  Loss on drying by TGA            0.83
1  CNC[C@]1(c2ccccc2)Oc2cc(F)c(Cl)c(-c3c(C(N)=O)ccc(OC)c3F)c2[C@@H]1C [Compound B L-lactate salt]  Loss on drying by TGA            1.18

====

Property: DP[%] degradation products; scope: individual compounds
- Assay text: Excipient compatibility stress test (HPLC degradation products, color)
- Format: physicochemical
- Test settings: Compound B forms, 2 weeks 50° C./75% RH, 1% in HPMC powder
Structures can show the parent of a compound that is named as a salt.
Assay readout: DP[%] degradation products

>>> df
                                   compound               assay_readout  result
0  CNC[C@]1(c2ccccc2)Oc2cc(F)c(Cl)c(-c3c(C(N)=O)ccc(OC)c3F)c2[C@@H]1C [Compound B L-malate salt]  DP[%] degradation products   2.65%
1  CNC[C@]1(c2ccccc2)Oc2cc(F)c(Cl)c(-c3c(C(N)=O)ccc(OC)c3F)c2[C@@H]1C [Compound B Free form, amorphous]  DP[%] degradation products   4.33%
2  CNC[C@]1(c2ccccc2)Oc2cc(F)c(Cl)c(-c3c(C(N)=O)ccc(OC)c3F)c2[C@@H]1C [Compound B L-lactate salt]  DP[%] degradation products   0.42%
3  CNC[C@]1(c2ccccc2)Oc2cc(F)c(Cl)c(-c3c(C(N)=O)ccc(OC)c3F)c2[C@@H]1C [Compound B Succinate salt]  DP[%] degradation products   0.99%

====

Property: DP[%] degradation products, Bulk clear quartz vial (HPLC); scope: individual compounds
- Assay text: Xenon light stress test of bulk (HPLC degradation products, color, XRPD)
- Type: physicochemical
- Test settings: Compound B forms; Xenon light (1200 kLuxh, 25° C.), clear quartz vial
- Experimental: X-ray powder diffraction (XRPD) patterns were obtained using a Bruker Advance D8 in reflection geometry. Powders were analyzed using a zero background Si flat sample holder. The radiation used was Cu Kα (A=1.5418 Å). Patterns were measured between 2° and 40° 2theta. • Sample amount: 5-10 mg • Sample holder: zero background Si flat sample holder X-ray powder diffraction (XRPD) patterns were obtained using a Bruker Advance D8 in reflection geometry. […]
Structures can show the parent of a compound that is named as a salt.
Assay readout: DP[%] degradation products, Bulk clear quartz vial (HPLC) (%)

>>> print(df.to_string())
                                   compound  readout_number
0  CNC[C@]1(c2ccccc2)Oc2cc(F)c(Cl)c(-c3c(C(N)=O)ccc(OC)c3F)c2[C@@H]1C [Compound B L-malate salt]            1.53
1  CNC[C@]1(c2ccccc2)Oc2cc(F)c(Cl)c(-c3c(C(N)=O)ccc(OC)c3F)c2[C@@H]1C [Compound B Free form, amorphous]            2.74
2  CNC[C@]1(c2ccccc2)Oc2cc(F)c(Cl)c(-c3c(C(N)=O)ccc(OC)c3F)c2[C@@H]1C [Compound B L-lactate salt]            0.38
3  CNC[C@]1(c2ccccc2)Oc2cc(F)c(Cl)c(-c3c(C(N)=O)ccc(OC)c3F)c2[C@@H]1C [Compound B Succinate salt]            2.38

The measured values listed here are drawn from patent US20250011307A1.
